- SUBJECT OF TEST: T1, Lsb4, P32793
- T1 sequence (P32793 402-468, looked up): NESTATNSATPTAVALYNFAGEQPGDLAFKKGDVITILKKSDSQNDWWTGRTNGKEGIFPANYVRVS
- MEASUREMENT NOTES: SPOT array
- CONDITION LABEL: median of control spots 397
QUANTITY: SPOT intensity

[a] PKMLPIPSKPTLFDL
[b] HGKRRAPLLLAKLDV
[c] RPVPPPPPMRTTTEG
// rank above by SPOT intensity: first = highest number # list labels per requested ordering a, b, c

[a] QFDLKMPSKPIHNLK
[b] KRRTSLFPWLHKPGI
[c] AATTSTPPLPRRRAT
Rank order required: SPOT intensity, descending. # list labels per requested ordering c, a, b
(c: 1360, a: 27, b: 0)

[P] ISRRRLPVIMHRLKM
[Q] AVPPPPPPPPLPESL
[R] TKIRRRPQQPLTDFT
[S] SKAKRPKFLLDLQIK
Please order the records by their reported SPOT intensity, lowest number first. # list labels per requested ordering Q, S, R, P

[I] RKQRSIPLSPIVPES
[II] MFLISPPASPPPEFD
[III] QTMRQAPKRPDADVA
Please order the records by their reported SPOT intensity, lowest number first. # list labels per requested ordering II, I, III
(II: 0, I: 9, III: 115)

Reference source: paper PMC2756588
